TEST_DETAILS: Growth inhibition of human HCT15 cells at 10 uM after 48 hrs by SRB assay
Format: functional
CONDITION: HCT-15, 48 h, read-out: GI
MEASURED_PROPERTY: inhibition of growth at 10 µM

Below, 2 molecules whose answers are already recorded.
INPUT: For `Cc1ccc(C2=Nc3ccc(Cl)cc3C3=NNCC(=O)NN23)cc1` , write its inhibition of growth at 10 µM.
OUTPUT: < 10%

INPUT: Could you please provide reported inhibition of growth at 10 µM for `Cc1ccc(-c2nc3ccc(Cl)cc3c3nnc(S)n23)cc1` ? Thanks!
OUTPUT: < 10%

Here is the next item to consider.
INPUT: Identify the reported inhibition of growth at 10 µM for the following entry. `Cc1ccc(-c2nc3ccc(Cl)cc3c3nnnn23)cc1`
OUTPUT: < 10%
